# PROCEDURE SUMMARY: Phase 1 study part 1: absolute bioavailability, oral 200-mg tablet plus [14C]-belumosudil IV microtracer, plasma PK
# Assay type: in vivo, human
# CONDITION DETAILS: male, human, plasma, other: intravenous and oral, IV and oral dosing comparable; read-out: half-life values following IV and oral dosing
ENDPOINT: half-life

Query half-life for CC(C)NC(=O)COc1cccc(-c2nc(Nc3ccc4[nH]ncc4c3)c3ccccc3n2)c1 5 to 6 h

====

# PROCEDURE SUMMARY: Phase 1 study part 1: absolute bioavailability, oral 200-mg tablet plus [14C]-belumosudil IV microtracer, plasma PK
# Type: in vivo, human
# CONDITION DETAILS: male, human, plasma, po, 200 mg, arithmetic mean (standard deviation); Part 1; belumosudil after oral 200-mg tablet; read-out: T1/2 (converted)
ENDPOINT: half-life (h)
Report as a plain number; the unit h is understood.

Query half-life for CC(C)NC(=O)COc1cccc(-c2nc(Nc3ccc4[nH]ncc4c3)c3ccccc3n2)c1 6.05

====

# TEST TARGET: ROCK2 (Rattus norvegicus)
# Construct: Full length rat ROCK1 and ROCK2 proteins were isolated from various tumor cell lines or tissues by immunoabsorption; endogenous in cells
# Sequence (Q62868 whole entry): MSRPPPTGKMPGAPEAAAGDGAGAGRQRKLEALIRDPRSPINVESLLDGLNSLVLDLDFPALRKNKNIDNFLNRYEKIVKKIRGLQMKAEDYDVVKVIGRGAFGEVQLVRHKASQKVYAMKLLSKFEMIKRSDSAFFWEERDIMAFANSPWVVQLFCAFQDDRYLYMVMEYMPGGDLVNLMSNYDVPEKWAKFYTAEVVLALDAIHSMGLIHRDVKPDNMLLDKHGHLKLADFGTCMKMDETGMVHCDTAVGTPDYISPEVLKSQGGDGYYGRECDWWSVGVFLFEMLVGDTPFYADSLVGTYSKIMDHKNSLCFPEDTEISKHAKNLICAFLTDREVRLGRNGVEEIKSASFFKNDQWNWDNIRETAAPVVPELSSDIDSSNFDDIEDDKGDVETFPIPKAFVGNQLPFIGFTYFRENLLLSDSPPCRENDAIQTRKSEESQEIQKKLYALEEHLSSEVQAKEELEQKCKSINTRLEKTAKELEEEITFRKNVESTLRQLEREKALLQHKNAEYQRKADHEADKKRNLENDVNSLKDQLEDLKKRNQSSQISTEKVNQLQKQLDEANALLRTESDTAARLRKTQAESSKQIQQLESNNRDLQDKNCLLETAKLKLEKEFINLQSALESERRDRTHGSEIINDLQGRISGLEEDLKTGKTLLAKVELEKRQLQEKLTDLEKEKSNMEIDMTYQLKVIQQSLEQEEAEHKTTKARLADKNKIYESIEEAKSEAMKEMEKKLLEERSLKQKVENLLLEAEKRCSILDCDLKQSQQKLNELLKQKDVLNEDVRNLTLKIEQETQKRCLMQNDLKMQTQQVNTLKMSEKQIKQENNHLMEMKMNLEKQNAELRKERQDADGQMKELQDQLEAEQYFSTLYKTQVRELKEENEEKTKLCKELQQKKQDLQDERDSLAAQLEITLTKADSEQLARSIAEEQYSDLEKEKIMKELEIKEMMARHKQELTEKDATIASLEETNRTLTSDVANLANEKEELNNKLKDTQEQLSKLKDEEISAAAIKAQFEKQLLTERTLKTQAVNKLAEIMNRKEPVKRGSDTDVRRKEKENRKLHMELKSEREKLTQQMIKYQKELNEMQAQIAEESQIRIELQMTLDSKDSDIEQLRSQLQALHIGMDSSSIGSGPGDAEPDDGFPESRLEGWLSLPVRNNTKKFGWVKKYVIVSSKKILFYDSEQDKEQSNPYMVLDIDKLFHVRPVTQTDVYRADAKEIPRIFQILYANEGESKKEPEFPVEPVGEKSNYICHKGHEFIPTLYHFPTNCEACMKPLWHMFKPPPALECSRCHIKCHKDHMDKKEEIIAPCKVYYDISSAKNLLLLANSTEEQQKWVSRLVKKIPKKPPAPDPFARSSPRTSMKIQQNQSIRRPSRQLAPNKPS
# PROCEDURE SUMMARY: Inhibition of ROCK2 enzymatic activity, immunoabsorbed full length enzyme, S6 kinase substrate peptide, [γ33P]ATP
# CONDITION DETAILS: ROCK2
ENDPOINT: pKi
Please note pKi is a logarithmic value: minus log10 of concentration in mol/L. Answer with that number alone.

Query pKi for O=C(O)COc1cccc(-c2nc(Nc3ccc4[nH]ncc4c3)c3ccccc3n2)c1 [KD025m2] 6.47

Query pKi for NC(=O)COc1cccc(-c2nc(Nc3ccc4[nH]ncc4c3)c3ccccc3n2)c1 [KD025m1] 7.26

Query pKi for CC(N)C1CCC(C(=O)Nc2ccncc2)CC1 (stereo not shown) [Y-27362] 7.35

Query pKi for CC(C)NC(=O)COc1cccc(-c2nc(Nc3ccc4[nH]ncc4c3)c3ccccc3n2)c1 [Belumosudil] 7.40

====

# PROCEDURE SUMMARY: Phase 1 study part 1: absolute bioavailability, oral 200-mg tablet plus [14C]-belumosudil IV microtracer, plasma PK
# Type: in vivo, human
# CONDITION DETAILS: male, human, plasma, po, 200 mg, geometric mean (geometric CV %); Part 1; belumosudil after oral 200-mg tablet; read-out: T1/2 (terminal half-life) (converted)
ENDPOINT: half-life (h)
Report as a plain number; the unit h is understood.

Query half-life for CC(C)NC(=O)COc1cccc(-c2nc(Nc3ccc4[nH]ncc4c3)c3ccccc3n2)c1 5.3

====

# PROCEDURE SUMMARY: Phase 1 study part 2: plasma and whole-blood PK after oral 200 mg [14C]-belumosudil capsule
# Assay type: in vivo, human
# CONDITION DETAILS: male, human, plasma, oral, 200 mg, arithmetic mean (standard deviation); Part 2; [14C]-belumosudil 200-mg capsule
# Method: This was a single-center, nonrandomized, open-label, 2-part study in 5 healthy male subjects aged 30 to 65 years. All oral doses were administered following an overnight fast and a standard breakfast on the day of dosing. […] Whole-blood samples for total radioactivity and plasma samples for metabolite pro-filing and identification were collected before dosing and 1, 4, 8, 12, 24, 48, 72, 96, 120, 144, and 168 hours after dosing. […]
ENDPOINT: half-life (h)
Report as a plain number; the unit h is understood.

Query half-life for CC(C)NC(=O)COc1cccc(-[14c]2nc(Nc3ccc4[nH]ncc4c3)c3ccccc3n2)c1 [[^14C]-Belumosudil] 5.39

====

# PROCEDURE SUMMARY: Phase 1 study part 2: plasma and whole-blood PK after oral 200 mg [14C]-belumosudil capsule
# Format: in vivo, human
# CONDITION DETAILS: male, human, plasma, oral; median (min-max); Part 2 (n = 5); [14C]-belumosudil 200-mg capsule
ENDPOINT: Tmax
Just so you know, I need the unit written after the number.

Query Tmax for CC(C)NC(=O)COc1cccc(-[14c]2nc(Nc3ccc4[nH]ncc4c3)c3ccccc3n2)c1 [[^14C]-Belumosudil] 2 h

====

# PROCEDURE SUMMARY: Phase 1 study part 1: absolute bioavailability, oral 200-mg tablet plus [14C]-belumosudil IV microtracer, plasma PK
# Assay type: in vivo, human
# CONDITION DETAILS: male, human, plasma, iv, 100 ug, arithmetic mean (standard deviation); Part 1; [14C]-belumosudil, 100 μg IV; read-out: T1/2 (converted)
ENDPOINT: half-life (h)
Report as a plain number; the unit h is understood.

Query half-life for CC(C)NC(=O)COc1cccc(-[14c]2nc(Nc3ccc4[nH]ncc4c3)c3ccccc3n2)c1 [[^14C]-Belumosudil] 6.15
